# Target or test system: HLA-A*02:01
# Assay comment: IEDB peptide-MHC binding, purified MHC/direct/fluorescence; filed as Kd, often an IC50 or EC50 that approximates it; bounds were set here for any values at or beyond the usual limits of such assays
# Condition parameters: source organism: Influenza A virus (A/chicken/Thailand/LV1NF/2004(H5N1))
pKd: −log10 of the molar value.
Parameter: pKd

(Q) Specify reported pKd for the sequence shown: EMIWDPNGW
(A) ≤ 4.70

----------
# Target or test system: HLA-B*35:01
# Assay comment: IEDB peptide-MHC binding, purified MHC/competitive/radioactivity; filed as Kd, often an IC50 or EC50 that approximates it; bounds were set here for any values at or beyond the usual limits of such assays
# Condition parameters: source organism: Mammarenavirus lassaense
Examples of sequences with documented Kd follow.
Quick note: give the figure in nM, leave out the unit.

INSERT INTO measurements (input_sequence, target_or_test_system, parameter, display_unit, reported) VALUES
  ('TPVEIVVDM', 'HLA-B*35:01', 'Kd', 'nM', 4.6);

(Q) Specify reported Kd for the sequence shown: CPFLFLIVL
(A) 414

(Q) Specify reported Kd for the sequence shown: FPAIFSAEVL
(A) 55.7

(Q) Specify reported Kd for the sequence shown: FPYVMGDVEL
(A) 11.1

----------
# Target or test system: HLA-B*18:01
# Assay comment: IEDB peptide-MHC binding, purified MHC/direct/fluorescence; filed as Kd, often an IC50 or EC50 that approximates it; bounds were set here for any values at or beyond the usual limits of such assays
# Condition parameters: source organism: Dengue virus 1 Singapore/S275/1990
Parameter: pKd
Please note pKd is a logarithmic value: minus log10 of concentration in mol/L. Answer with that number alone.

(Q) Specify reported pKd for the sequence shown: LEFFLMVLL
(A) 6.72

----------
# Target or test system: HLA-B*27:03
# Assay comment: IEDB peptide-MHC binding, purified MHC/competitive/fluorescence; filed as Kd, often an IC50 or EC50 that approximates it; bounds were set here for any values at or beyond the usual limits of such assays
# Condition parameters: source organism: Vibrio parahaemolyticus AQ3810
Parameter: Kd

(Q) Specify reported Kd for the sequence shown: SSRGYSAIW
(A) ≥ 20 µM

----------
# Target or test system: HLA-A*33:01
# Assay comment: IEDB peptide-MHC binding, purified MHC/competitive/radioactivity; filed as Kd, often an IC50 or EC50 that approximates it; bounds were set here for any values at or beyond the usual limits of such assays
# Condition parameters: source organism: Lassa virus Josiah
Examples of sequences with documented pKd follow.
Please note pKd is a logarithmic value: minus log10 of concentration in mol/L. Answer with that number alone.

INSERT INTO results (input_sequence, parameter, reported) VALUES
  ('MLRLFDFNK', 'pKd', 6.28);

(Q) Specify reported pKd for the sequence shown: GSYIALDSGR
(A) 5.94

----------
# Target or test system: HLA-B*15:17
# Assay comment: IEDB peptide-MHC binding, purified MHC/direct/fluorescence; filed as Kd, often an IC50 or EC50 that approximates it; bounds were set here for any values at or beyond the usual limits of such assays
# Condition parameters: source organism: Vibrio cholerae O395
Parameter: pKd
Please note pKd is a logarithmic value: minus log10 of concentration in mol/L. Answer with that number alone.

(Q) Specify reported pKd for the sequence shown: VVSEIDLQW
(A) 8.70
